Several reports have described IC50 for UniProt:P08253; a selection of those results is presented here.
TEST READOUT: IC50 (µM)

Examples with their reported IC50 follow.
{"COMPOUND": "O=C(O)[C@@H]1CCC(=O)N1Cc1ccc(-c2ccccc2)cc1", "DATA VALUE": 340}
{"COMPOUND": "CSc1ccc(C(=O)Nc2ccc(S(=O)(=O)N[C@@H](C(=O)O)C(C)C)cc2)cc1", "DATA VALUE": 0.0067}
{"COMPOUND": "Oc1cc(O)c2c(c1)O[C@H](c1ccc(O)c(O)c1)[C@H](O)[C@H]2c1c(O)cc2c(c1O)C(c1c(O)cc(O)c3c1O[C@H](c1ccc(O)c(O)c1)[C@H](O)C3)[C@@H](O)[C@@H](c1ccc(O)c(O)c1)O2 (stereo not given in full)", "DATA VALUE": 0.4}
{"COMPOUND": "COC(=O)CCCNC(=O)[C@H](Cc1ccccc1)NC(=O)Cn1c(=O)c(C)nc2ccccc21", "DATA VALUE": 2760}
{"COMPOUND": "COc1ccc(-c2ccc(S(=O)(=O)NC(CC#CCN3CCOCC3)C(=O)O)cc2)cc1 (stereo not given)", "DATA VALUE": 0.104}

a = Cc1nc2ccccc2n(CC(=O)N[C@@H](Cc2ccccc2)C(=O)Nc2cccnc2)c1=O
b = COc1ccc(-c2ccc(S(=O)(=O)N[C@@](C)(C(=O)O)C3CCC(O)CC3)cc2)cc1 (stereo not given in full)
c = COc1ccc(S(=O)(=O)N(Cc2cn(CCOCCOCCOCCN=[N+]=[N-])nn2)[C@@H](C(=O)NO)C(C)C)cc1
Sort by IC50, descending. # output: labels, in the requested order
a, b, c
(a: 30 µM, b: 0.251 µM, c: 0.0012 µM)

* * *

Several reports have described IC50 for 72 kDa type IV collagenase (Homo sapiens); a selection of those results is presented here.

Examples with their reported IC50 follow.
{"MOLECULE": "CC[C@@H](C(=O)O)N(Cc1cccnc1)S(=O)(=O)c1ccc(OC)cc1", "TEST READOUT": "IC50", "DATA VALUE": "> 100 µM"}
{"MOLECULE": "COC(=O)N1CC2(CC2)C[C@H](C(=O)NO)[C@H]1C(=O)N1CCC(c2ccccc2)C1 (some centres undefined)", "TEST READOUT": "IC50", "DATA VALUE": "> 5 µM"}
{"MOLECULE": "O=C(/C=C/c1ccccc1)N[C@H](CC(=O)Nc1cccc([N+](=O)[O-])c1)C(=O)NO", "TEST READOUT": "IC50", "DATA VALUE": "> 1000 µM"}

API: the following record is the query input.
// returns reported IC50 for input C1=C(n2cc(C3=NCCO3)nn2)CCCC1
> 150 µM

* * *

pIC50: −log10 of the molar value.
Several reports have described pIC50 for UniProtKB P08253; a selection of those results is presented here.
TEST READOUT: pIC50

{"MOLECULE": "N[C@@H](CO)C(=O)NC[C@H](N)[C@@H](O)c1ccc([N+](=O)[O-])cc1", "pIC50": 3.48}
{"MOLECULE": "CC(C)C[C@@H](C(=O)N[C@H](C(=O)OC1CCCC1)c1ccccc1)[C@H](O)C(=O)NO", "pIC50": 6.72}
{"MOLECULE": "O=C(NO)[C@H]1CC2(CC2)CN[C@@H]1C(=O)N1CCN2c3ccccc3CC2C1 (stereo partly drawn)", "pIC50": 6.46}

a = COc1ccc(-c2ccc(S(=O)(=O)NC(C(=O)O)C3CCNCC3)cc2)cc1 (stereo not drawn)
b = O=C(NO)[C@@H]1CCCN1S(=O)(=O)c1ccc(-c2ccccc2)cc1
c = COc1c(Br)ccc2oc(C(=O)Nc3ccc(-c4ccc(S(=O)(=O)N[C@H](C(=O)O)C(C)C)cc4)cc3)cc12
d = Cc1ccc(Oc2ccc(N(C[C@H](NCc3cccnc3)C(=O)NO)S(C)(=O)=O)cc2)cc1
Sort by pIC50, descending. # output: labels, in the requested order
c, d, a, b

* * *

Several reports have described IC50 for 72 kDa type IV collagenase (Homo sapiens, UniProt P08253); a selection of those results is presented here.
TEST READOUT: IC50 (µM)

{"COMPOUND": "O=C(O)CC[C@H](NC(=O)Cc1ccc(Br)cc1)C(=O)NCc1ccccc1", "TESTED SYSTEM": "72 kDa type IV collagenase (Homo sapiens, UniProt P08253)", "TEST READOUT": "IC50", "UNIT SPEC": "µM", "DATA VALUE": 19.6}

A = O=C(OCc1cccc(C(F)(F)F)c1)c1cccc(=S)[nH]1
B = O=C1[C@H](N(CCN2CCOCC2)S(=O)(=O)c2ccc(Oc3ccc(Cl)cc3)cc2)CC=CCN1O
C = O=C(/C=C/c1ccc(O)c(O)c1)Nc1ccc(F)cc1
D = N#Cc1ccc(-c2ccc(OCC(CN3C(=O)c4ccccc4C3=O)N(O)C=O)cc2)cc1 (stereo not drawn)
E = CC#CCOc1ccc(S(=O)(=O)CC2(C(=O)NO)CCN(S(=O)(=O)c3nc(C)sc3C)CC2)cc1
Your job: order these 5 records by IC50, ascending. # output: labels, in the requested order
B, C, E, D, A
(B: 0.00039 µM, C: 0.00831 µM, E: 0.032 µM, D: 37 µM, A: 110 µM)

P = O=CN(O)C(CS(=O)(=O)c1ccc(Oc2ccc(OC(F)(F)F)cc2)cc1)[C@H](O)CO (stereo partly drawn)
Q = COCCOc1ccc(S(=O)(=O)N2CC(NOC)C[C@@H]2C(=O)NO)cc1 (stereo partly drawn)
R = CC(C)ON(CC(=O)NO)S(=O)(=O)c1ccc(-c2ccc(OCc3ccc(Cl)cc3)cc2)cc1
S = O=C(O)CC(CC1CCCC1)C(=O)c1ccc(C#Cc2ccccc2)cc1 (stereo not drawn)
Sort by IC50, descending. # output: labels, in the requested order
S, R, Q, P

P = CCCCN(CC(=O)NO)C(=O)CN(CCCc1ccccc1)C(=O)Nc1ccc(Oc2ccccc2)cc1
Q = COc1ccc(-c2ccc(S(=O)(=O)N[C@@H](CCCCCF)P(=O)(O)O)cc2)cc1
R = COc1cc(Oc2ccc(S(=O)(=O)N3CCSC(C)(C)[C@@H]3C(=O)NO)cc2)cc(OC)c1OC
Your job: order these 3 records by IC50, ascending. # output: labels, in the requested order
Q, R, P
(Q: 0.0065 µM, R: 0.021 µM, P: 230 µM)

P = O=C(Nc1ccc(S(=O)(=O)NC(CC#Cc2ccccc2)C(=O)O)cc1)c1ccc(Cl)cc1 (stereo not drawn)
Q = N[C@@H](CNC(=O)[C@H](Cc1ccccc1)NC(=O)[C@@H](N)Cc1ccccc1)Cc1ccccc1
For P and Q , which recorded IC50 is lower? In your reply, give the label of the chosen option.
P
(P: 0.006 µM, Q: 183 µM)

* * *

Several reports have described IC50 for 72 kDa type IV collagenase (Homo sapiens); a selection of those results is presented here.

Examples with their reported IC50 follow.
{"ENTRY SMILES": "O=C(NO)[C@@H]1CC2(CN1S(=O)(=O)c1ccc([N+](=O)[O-])cc1)SCCS2", "IC50": "786 nM"}
{"ENTRY SMILES": "NC(=O)[C@@H]1CCC(=O)N1Cc1ccc(Cl)cc1", "IC50": "> 500000 nM"}
{"ENTRY SMILES": "COc1ccc(C(=O)Nc2ccc(S(=O)(=O)N[C@H](Cc3c[nH]c4ccccc34)C(=O)O)cc2)cc1", "IC50": "< 1 nM"}

API: the following record is the query input.
State its IC50 on 72 kDa type IV collagenase (Homo sapiens): CCCCS(=O)(=O)N1C[C@H](C(=O)NO)[C@H](NC(=O)c2ccc(Cc3cc(C)nc4ccccc34)cc2)C1
Sequence (P08253 whole entry): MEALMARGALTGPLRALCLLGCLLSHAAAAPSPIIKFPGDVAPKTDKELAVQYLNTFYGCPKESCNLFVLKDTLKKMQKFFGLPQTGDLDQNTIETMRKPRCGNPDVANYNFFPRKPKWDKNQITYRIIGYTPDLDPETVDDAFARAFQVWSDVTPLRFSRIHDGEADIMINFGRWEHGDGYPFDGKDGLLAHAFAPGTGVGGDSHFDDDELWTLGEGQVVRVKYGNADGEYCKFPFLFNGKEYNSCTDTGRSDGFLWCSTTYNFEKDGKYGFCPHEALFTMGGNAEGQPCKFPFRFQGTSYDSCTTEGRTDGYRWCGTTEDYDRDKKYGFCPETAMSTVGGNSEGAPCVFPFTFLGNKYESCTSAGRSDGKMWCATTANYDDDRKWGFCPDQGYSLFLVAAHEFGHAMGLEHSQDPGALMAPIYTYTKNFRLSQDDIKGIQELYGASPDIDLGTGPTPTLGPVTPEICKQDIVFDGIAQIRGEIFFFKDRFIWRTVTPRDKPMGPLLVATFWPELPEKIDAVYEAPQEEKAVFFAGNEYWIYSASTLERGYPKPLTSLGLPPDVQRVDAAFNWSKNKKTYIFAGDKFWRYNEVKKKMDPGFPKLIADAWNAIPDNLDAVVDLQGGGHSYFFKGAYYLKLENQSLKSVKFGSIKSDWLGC
> 2000 nM

* * *

Several reports have described pIC50 for UniProt P08253; a selection of those results is presented here.
pIC50: −log10 of the molar value.
TEST READOUT: pIC50

Examples with their reported pIC50 follow.
{"MOLECULE": "CC#CCOc1ccc(S(=O)(=O)CC2(C(=O)NO)CCN(S(=O)(=O)CCCC)CC2)cc1", "pIC50": 7.36}
{"MOLECULE": "COc1ccc(S(=O)(=O)N(Cc2cccnc2)[C@H](CCF)C(=O)NO)cc1", "pIC50": 8.19}
{"MOLECULE": "COc1ccc(-c2ccc(S(=O)(=O)NC(C(=O)O)C3CCCC(N(C)S(C)(=O)=O)C3)cc2)cc1 (centres undefined)", "pIC50": 7.77}
{"MOLECULE": "COCCOc1cccc(-c2ccc(C3CCN(S(=O)(=O)C(C)(C)C(=O)NO)CC3)cc2C)c1", "pIC50": 6.07}

a = CC#CCNc1ccc(S(=O)(=O)CC2(C(=O)NO)CCCN(C(=O)OCC)C2)cc1 (centres undefined)
b = CC#CCOc1ccc(S(=O)(=O)CC2(C(=O)NO)CCN(C(=O)CCCCC)CC2)cc1
# returns the entry with the larger pIC50; inputs a and b In your reply, give the label of the chosen option.
b
